- System: carrageenin edema of hind footpad
- Method Notes: Carrageenin hind footpad edema in rats (anti-inflammatory action)
- Format: in vivo
- Cond: 50 mg/kg intraperitoneally 1 h before carrageenin, 4 hours after inoculation, control 82, 50 mg/kg
Known Swelling rate of edema of a selection of compounds
Give just the numeric value; % need not be written.

Some compounds with known Swelling rate of edema results, for comparison:
Compound	Swelling rate of edema / %
CC(C)CCC[C@@H](C)[C@H]1CC[C@H]2[C@@H]3[C@@H](O)C=C4C[C@@H](OC(=O)c5ccccc5C(=O)O)CC[C@]4(C)[C@H]3CC[C@]12C [Sodium 7β-hydroxycholesteryl phthalate]	31
CC(C)CCC[C@@H](C)[C@H]1CC[C@H]2[C@@H]3C(O)C=C4C[C@@H](OC(=O)CCC(=O)O)CC[C@]4(C)[C@H]3CC[C@]12C (stereo partly shown) [Sodium 7-hydroxycholesteryl succinate, sodium 7-hydroxycholesteryl succinate]	28
CC(C)CCC[C@@H](C)[C@H]1CC[C@H]2[C@@H]3[C@@H](O)C=C4C[C@@H](OC(=O)c5ccccc5C(=O)O)CC[C@]4(C)[C@H]3CC[C@]12C [7β-hydroxycholesteryl hydrogen phthalate]	30

Let us examine a further case.
Query :: What reported Swelling rate of edema corresponds to CC(C)CCC[C@@H](C)[C@H]1CC[C@H]2[C@@H]3C(O)C=C4C[C@@H](OC(=O)CCC(=O)O)CC[C@]4(C)[C@H]3CC[C@]12C (stereo partly shown) [7-hydroxycholesteryl hydrogen succinate] on carrageenin edema of hind footpad?
Result :: 29

###

Known IC50 of a selection of compounds
- Tested on: PHA reaction
- Method Notes: PHA reaction, 50% inhibitory concentration (immunosuppressive action in vitro)
- Assay type: cell-based
- Cond: ester form as emulsion with polyoxyethylene-polyoxypropylene copolymer, salt form as aqueous solution, read-out: Concentration for 50% inhibition
- Protocol: In accordance with the PHA method by Cooparband et al. [The Journal of Immunology, 109, (1), 154 (1972)], the compounds of this invention were tested for the 50% inhibitory concentration in the PHA reaction. Also, the effect of IRA (Immunoregulatory α-globulin) obtained according to the method of Occhino et al. [The Journal of Immunology, 110, (3), 685 (1973)] was shown as comparative test data. […]
Give just the numeric value; µg/mL need not be written.

Query :: Dear colleague, I am looking for the recorded IC50 of the following compound: CC(C)CCC[C@@H](C)[C@H]1CC[C@H]2[C@@H]3[C@@H](O)C=C4C[C@@H](OC(=O)c5ccccc5C(=O)O)CC[C@]4(C)[C@H]3CC[C@]12C [7β-hydroxycholesteryl hydrogen phthalate]
Result :: 3

Query :: Dear colleague, I am looking for the recorded IC50 of the following compound: CC(C)CCC[C@@H](C)[C@H]1CC[C@H]2[C@@H]3C(=O)C=C4C[C@@H](OC(=O)c5ccccc5C(=O)O)CC[C@]4(C)[C@H]3CC[C@]12C [7-ketocholesteryl hydrogen phthalate]
Result :: 4

Query :: Dear colleague, I am looking for the recorded IC50 of the following compound: CC(C)CCC[C@@H](C)[C@H]1CC[C@H]2[C@@H]3C(O)C=C4C[C@@H](OC(=O)CCC(=O)O)CC[C@]4(C)[C@H]3CC[C@]12C (stereo partly shown) [7-hydroxycholesteryl hydrogen succinate]
Result :: 3

Query :: Dear colleague, I am looking for the recorded IC50 of the following compound: CC(C)CCC[C@@H](C)[C@H]1CC[C@H]2[C@@H]3C(=O)C=C4C[C@@H](OC(=O)CCC(=O)O)CC[C@]4(C)[C@H]3CC[C@]12C [7-ketocholesteryl hydrogen succinate]
Result :: 4
